Reference for the values: ChEMBL document CHEMBL1221332

molecular target: D(3) dopamine receptor (Homo sapiens, UniProt P35462); assay: Antagonist activity at dopamine D3 receptor by GTPgammaS binding assay; format: functional
Sequence (P35462 whole entry): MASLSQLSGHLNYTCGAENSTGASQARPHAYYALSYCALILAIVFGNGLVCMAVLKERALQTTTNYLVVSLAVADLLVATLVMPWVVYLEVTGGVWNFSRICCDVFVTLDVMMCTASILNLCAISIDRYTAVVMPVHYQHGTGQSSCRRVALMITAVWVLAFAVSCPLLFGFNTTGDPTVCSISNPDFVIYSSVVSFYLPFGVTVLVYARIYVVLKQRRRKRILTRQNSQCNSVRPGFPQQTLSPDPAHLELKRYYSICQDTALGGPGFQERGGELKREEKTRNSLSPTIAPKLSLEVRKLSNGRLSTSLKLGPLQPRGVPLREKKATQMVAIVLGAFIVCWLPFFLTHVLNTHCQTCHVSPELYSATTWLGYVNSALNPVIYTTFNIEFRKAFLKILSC
Please provide measured pKi for the entries that follow.
Just so you know, pKi here is -log10 of the concentration in molar units; reply with that number alone.

Incoming: Give its pKi value. Item: CC(C)c1ccc(S(=O)(=O)Nc2ccc(C34CNCC3C4)cc2)cc1 (single isomer, unassigned; enantiomer 1)
Outgoing: 8.40

Incoming: // query pKi value for entry "CC(C)c1ccc(S(=O)(=O)Cc2ccc([C@]34CNC[C@H]3C4)cc2)cc1"
Outgoing: 7.60

Incoming: # input compound: "CCC(C)(C)c1ccc(S(=O)(=O)Nc2ccc([C@]34CNC[C@H]3C4)cc2)cc1" ; wanted: its pKi
Outgoing: 8.20

Incoming: What does the record list as pKi for "CC(C)c1ccc(S(=O)(=O)Nc2ccc([C@@]34C[C@@H]3CN(C)C4)cc2)cc1" ?
Outgoing: 8.20

---

Observed pKi, system D(2) dopamine receptor (Homo sapiens, UniProt P14416).
Conceptually, pKi converts a concentration in mol/L into minus its log10.

Incoming: Field request: pKi | item: "COc1cc([C@]23CNC[C@H]2C3)ccc1NS(=O)(=O)c1ccc(C(C)C)cc1"
Outgoing: 7.30

Incoming: What pKi value was documented for this compound, "CC(C)c1ccc(S(=O)(=O)Cc2ccc([C@]34CNC[C@H]3C4)cc2)cc1" ?
Outgoing: 6.50

Incoming: Param item = "CN(c1ccc([C@]23CNC[C@H]2C3)cc1)S(=O)(=O)c1ccccc1" ; retrieve measured pKi.
Outgoing: 6.30

Incoming: Requested field: pKi. Item: "CCCCc1ccc(S(=O)(=O)Nc2ccc([C@]34CNC[C@H]3C4)cc2)cc1"
Outgoing: 6.90

Incoming: Which value of pKi has been reported for "CC(C)c1ccc(S(=O)(=O)Nc2ccc([C@@]34C[C@@H]3CN(C)C4)cc2)cc1" in the records?
Outgoing: 7.20

Incoming: Could you tell me which pKi is on file for "CCN1C[C@H]2C[C@@]2(c2ccc(NS(=O)(=O)c3ccc(C(C)C)cc3)cc2)C1" ?
Outgoing: 7.00
